# Tested on: Escherichia coli K12 or Escherichia coli BL21
# experiment description: Antimicrobial activity, relative growth inhibition in broth microdilution (Gram-neg.)
# Format: cell-based
# Parameters: key: ++: highly active (comparable to oncocin); +: moderately active; +/-: moderately active without clear dose dependency; -: no activity
# measurement conditions: Escherichia coli in Miller-Hinton broth, inoculum 1-2 x 10^7 cfu/ml, 100 µl + 20 µl test substance, 2n dilution series from 1 mg/ml down to 31 µg/ml, 18-24 h 37 °C, photometer 600 nm, duplicates
# Method: Test strains of Bacillus subtilis, Escherichia coli K12 or Escherichia coli BL21 were grown in Miller-Hinton broth (MHB) for 18–20 h at 37 °C with moderate shaking. […] Test substances were measured in duplicates. […] After incubation, the bacterial growth was estimated with a Photometer at 600 nm and the relative growth inhibition was calculated compared with a control without test substance. […]
measured attribute: Activity against Gram-neg.

RLTPFVEPRY [Iguana-12, predicted antimicrobial peptide from marine iguana proteome, …]
+
GSFPKEAIVQK [Iguana-07, predicted antimicrobial peptide from marine iguana proteome, …]
+/-
VDKPPYLPRPRPPRRIYNR-NH2 [Oncocin, well-studied AMP used as positive control, …-NH2, reference compound]
++
SALWVVER [Iguana-non-01]
-
LPTKLDSAFIRKDPFG [Iguana-14, predicted antimicrobial peptide from marine iguana proteome, …]
+
SYFVKRPPGV [Iguana-13, predicted antimicrobial peptide from marine iguana proteome, …]
+/-
AGVPRFRFGPPE [Iguana-10, predicted antimicrobial peptide from marine iguana proteome, …]
++
